System: KRAS-mutant PDC multicell tumor spheroid viability
assay procedure: Anticancer human tumor 521955-158-R2-J5-PDC patient-derived pancreatic carcinoma cell line growth inhibition [KRAS2]
condition details: second compound 10 µM; first compound 0.0316 µM; hits give low values
observable: viability, T/C

A selection of reference data follows.
Query string: Requested read-out viability, T/C, target or system KRAS-mutant PDC multicell tumor spheroid viability, entry Cn1nccc1Nc1nccc(-c2cc3c(s2)C(C)(C)N(CCN2CCOCC2)C3=O)n1 + C=CC(=O)N1CCN(c2nc(=O)n(-c3c(C)ccnc3C(C)C)c3nc(-c4c(O)cccc4F)c(F)cc23)C(C)C1
Result string: 78.5%

Query string: Requested read-out viability, T/C, target or system KRAS-mutant PDC multicell tumor spheroid viability, entry CC1(C)CCC(CN2CCN(c3ccc(C(=O)NS(=O)(=O)c4ccc(NCC5CCOCC5)c([N+](=O)[O-])c4)c(Oc4cnc5[nH]ccc5c4)c3)CC2)=C(c2ccc(Cl)cc2)C1 + CC1OCC2(CCN(c3cnc(Sc4ccnc(N)c4Cl)c(N)n3)CC2)C1N
Result string: 40.3%

Moving on to another molecule below.
Query string: Requested read-out viability, T/C, target or system KRAS-mutant PDC multicell tumor spheroid viability, entry COC(=O)c1ccc2c(C(=Nc3ccc(N(C)C(=O)CN4CCN(C)CC4)cc3)c3ccccc3)c(O)[nH]c2c1 + COc1cc2nc(C)nc(NC(C)c3cc(N)cc(C(F)(F)F)c3)c2cc1OC1CCOC1
Result string: 17.9%

###

Tested on: KRAS-mutant PDC multicell tumor spheroid viability
assay procedure: Anticancer human tumor 521955-158-R2-J5-PDC cell line growth inhibition [KRAS2];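 note: viability read after seven days of drug exposure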
condition details: second compound 1 µM; first compound 0.1 µM; hits give low values
observable: viability, T/C

A selection of reference data follows.
Query string: Fill blank: measured viability, T/C of the compound CC1(C)CCC(CN2CCN(c3ccc(C(=O)NS(=O)(=O)c4ccc(NCC5CCOCC5)c([N+](=O)[O-])c4)c(Oc4cnc5[nH]ccc5c4)c3)CC2)=C(c2ccc(Cl)cc2)C1 + C=CC(=O)N1CCN(c2nc(OCC3CCCN3C)nc3c2CCN(c2cccc4cccc(C)c24)C3)CC1CC#N is ____.
Result string: 89.5%

Query string: Fill blank: measured viability, T/C of the compound CC(C)NCC(C(=O)N1CCN(c2ncnc3c2C(C)CC3O)CC1)c1ccc(Cl)cc1 (stereo not given) + C=CC(=O)N1CCN(c2nc(=O)n(-c3c(C)ccnc3C(C)C)c3nc(-c4c(O)cccc4F)c(F)cc23)C(C)C1 is ____.
Result string: 94.9%

Query string: Fill blank: measured viability, T/C of the compound COC(=O)c1ccc2c(C(=Nc3ccc(N(C)C(=O)CN4CCN(C)CC4)cc3)c3ccccc3)c(O)[nH]c2c1 + CC1OCC2(CCN(c3cnc(Sc4ccnc(N)c4Cl)c(N)n3)CC2)C1N is ____.
Result string: 46.7%

Query string: Fill blank: measured viability, T/C of the compound CC(C)n1nc(-c2ccc3oc(N)nc3c2)c2c(N)ncnc21 + COc1cc2nc(C)nc(NC(C)c3cc(N)cc(C(F)(F)F)c3)c2cc1OC1CCOC1 is ____.
Result string: 25.1%

Moving on to another compound below.
Query string: Fill blank: measured viability, T/C of the compound CC1(C)CCC(CN2CCN(c3ccc(C(=O)NS(=O)(=O)c4ccc(NCC5CCOCC5)c([N+](=O)[O-])c4)c(Oc4cnc5[nH]ccc5c4)c3)CC2)=C(c2ccc(Cl)cc2)C1 + COc1cc2nc(C)nc(NC(C)c3cc(N)cc(C(F)(F)F)c3)c2cc1OC1CCOC1 is ____.
Result string: 78.2%
